# Measured on: HLA-B*07:02
# Experimental details: IEDB peptide-MHC binding, purified MHC/direct/fluorescence; filed as Kd, often an IC50 or EC50 that approximates it; bounds were set here for any values at or beyond the usual limits of such assays
# Condition notes: source organism: Coxiella burnetii Q321

{"columns": ["Seq string", "Kd, µM"],
 "data": [
  ["DGAEGINPY", 8.58]
]}

###

# Measured on: HLA-A*11:01
# Experimental details: IEDB peptide-MHC binding, purified MHC/competitive/radioactivity; filed as Kd, often an IC50 or EC50 that approximates it; bounds were set here for any values at or beyond the usual limits of such assays
# Condition notes: source organism: Mammarenavirus machupoense
Measured Kd by item

{"columns": ["Seq string", "Value operator", "Kd (nM)"],
 "data": [
  ["MLNNSFYYM", "=", 195],
  ["RTAPPSLYGR", "=", 8.92],
  ["SFFQEIPVFL", "≥", 59700]
]}

The reported measurements were obtained from the Immune Epitope Database (IEDB).
